Target: T1, MPP7, Q5T2T1
T1 sequence (Q5T2T1 134-230, limits assumed, looked up): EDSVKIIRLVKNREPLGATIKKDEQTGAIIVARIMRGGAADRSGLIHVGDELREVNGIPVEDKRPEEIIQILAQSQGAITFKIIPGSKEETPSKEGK
Assay: holdup assay
Set-up: key: below the threshold = too weak to quantify, mostly under pKd 3.1 to 4
Conditions: plain residues with an end cap or a label only (N-terminal biotin on a linker: ado-ado)
reported_property: pKd

DFKHTKSFII [JAM2, P57087] :: 3.75
GDSSRKEYFI [GYPC, P04921] :: 5.18
EAVTVESTSL [SLC22A11, Q9NSA0] :: below the threshold
MLPANYVEAI [NEB, P20929] :: below the threshold
THHRKIHTRV [ZNF599, Q96NL3] :: below the threshold
PLPPEEESWV [GAS2L2, Q8NHY3] :: 3.57

Provide pKd for all items below, preserving their order.
1. VKQYADVEGF [HNRNPK, P61978;P61978-2]
2. GNDPDRGTSI [GRID2, O43424]
3. NISARRFTLC [FAM167B, Q9BTA0]
4. LPPPESESKV [KCNJ9, Q92806]
5. EKPIDSETKM [SLC1A3, P43003]

Result:
1: below the threshold; 2: below the threshold; 3: below the threshold; 4: below the threshold; 5: below the threshold

src = paper PMC9482650
